Assign IC50 to each entry below.
test system: Human immunodeficiency virus 1; assay: Antiviral activity against enfuvirtide-resistant HIV-1 NL4-3 harboring gp41 (36G)V38E/N42S mutation infected in human MT2 cells assessed as inhibition of p24 antigen production after 4 days by ELISA; format: functional, organism-based
Numbers only, in µM.

Cc1cc(/C=C2\SC(=S)N(Cc3ccc(C(C)(C)C)cc3)C2=O)c(C)n1-c1ccc(O)c(C(=O)O)c1	2.67
COC(=O)c1ccc(CN2C(=O)/C(=C/c3cc(C)n(-c4ccc(O)c(C(=O)O)c4)c3C)SC2=S)cc1	2.75

Now, please, on to the next compound.
Q. Param readout = IC50; param system = Human immunodeficiency virus 1; param query = `COC(=O)c1cccc(CN2C(=O)/C(=C/c3cc(C)n(-c4ccc(O)c(C(=O)O)c4)c3C)SC2=S)c1` ; response: value
A. 3.37

---

assay: Cytotoxicity against human MT2 cells after 4 days by XTT assay; format: cell-based
Attribute measured: CC50 at 96 h (µM)
Numbers only, in µM.

Examples with their reported CC50 at 96 h follow.
Cc1cc(/C=C2\SC(=S)N(Cc3cccc(Br)c3)C2=O)c(C)n1-c1ccc(O)c(C(=O)O)c1	48.2
Cc1cc(/C=C2\SC(=S)N(Cc3ccc(Br)cc3)C2=O)c(C)n1-c1ccc(O)c(C(=O)O)c1	94.4
COc1cccc(CN2C(=O)/C(=C/c3cc(C)n(-c4ccc(O)c(C(=O)O)c4)c3C)SC2=S)c1	102

Field: CC50 at 96 h. Fill in for each record below.
1. Cc1cc(/C=C2\SC(=S)N(Cc3ccc(C(C)(C)C)cc3)C2=O)c(C)n1-c1ccc(O)c(C(=O)O)c1
2. Cc1cc(/C=C2\SC(=S)N(Cc3ccc(C(=O)O)cc3)C2=O)c(C)n1-c1ccc(O)c(C(=O)O)c1
3. Cc1cc(/C=C2\SC(=S)N(Cc3ccccc3)C2=O)c(C)n1-c1ccc(Cl)c(C(=O)O)c1
4. Cc1cc(/C=C2\SC(=S)N(Cc3ccc(C(F)(F)F)cc3)C2=O)c(C)n1-c1ccc(O)c(C(=O)O)c1
5. COc1ccc(CN2C(=O)/C(=C/c3cc(C)n(-c4ccc(O)c(C(=O)O)c4)c3C)SC2=S)cc1
6. Cc1cc(/C=C2\SC(=S)N(Cc3ccccc3)C2=O)c(C)n1-c1cccc(C(=O)O)c1
7. Cc1cc(/C=C2\SC(=S)N(Cc3ccccc3)C2=O)c(C)n1-c1ccc(O)c(C(=O)O)c1
8. Cc1cc(/C=C2\SC(=S)N(Cc3cccc(C(F)(F)F)c3)C2=O)c(C)n1-c1ccc(O)c(C(=O)O)c1

A.
1. 55.2
2. 105
3. 68.3
4. 45.9
5. 75.3
6. 83.4
7. 159
8. 26.3

---

Assign pEC50 to each entry below.
tested on: Human immunodeficiency virus 1; assay: Antiviral activity against HIV1 3B infected in human MT2 cells assessed as inhibition of p24 antigen production after 4 days by ELISA; type: functional, organism-based; settings: Human immunodeficiency virus 1, 3B, MT2, 96 h
Numbers only, as −log10 of the molar value.

Examples with their reported pEC50 follow.
Cc1cc(/C=C2\SC(=S)N(Cc3ccc(C(=O)O)cc3)C2=O)c(C)n1-c1ccc(O)c(C(=O)O)c1	5.15
Cc1cc(/C=C2\SC(=S)N(Cc3ccc(Br)cc3)C2=O)c(C)n1-c1ccc(O)c(C(=O)O)c1	4.37

Field: pEC50. Fill in for each record below.
1. Cc1cc(/C=C2\SC(=S)N(Cc3cccc(Br)c3)C2=O)c(C)n1-c1ccc(O)c(C(=O)O)c1
2. Cc1cc(/C=C2\SC(=S)N(Cc3cccc(C(=O)O)c3)C2=O)c(C)n1-c1ccc(O)c(C(=O)O)c1
3. Cc1cc(/C=C2\SC(=S)N(Cc3ccccc3Br)C2=O)c(C)n1-c1ccc(O)c(C(=O)O)c1

A.
1: 4.49; 2: 4.92; 3: 4.39

Field: pEC50. Fill in for each record below.
1. Cc1ccc(C)n1-c1ccc(O)c(C(=O)O)c1
2. COC(=O)c1cccc(CN2C(=O)/C(=C/c3cc(C)n(-c4ccc(O)c(C(=O)O)c4)c3C)SC2=S)c1

A.
1: 6.15; 2: 6.52

Field: pEC50. Fill in for each record below.
1. Cc1cc(/C=C2\SC(=S)N(Cc3ccc(C(F)(F)F)cc3)C2=O)c(C)n1-c1ccc(O)c(C(=O)O)c1
2. Cc1cc(/C=C2\SC(=S)N(CCc3ccccc3)C2=O)c(C)n1-c1ccc(O)c(C(=O)O)c1

A.
[4.76, 5.21]

---

tested on: Human immunodeficiency virus 1; assay: Antiviral activity against HIV1 3B infected in human MT2 cells assessed as inhibition of p24 antigen production after 4 days by ELISA; format: functional, organism-based; conditions: Human immunodeficiency virus 1, 3B, MT2, 96 h
pEC50: −log10 of the molar value.
Could you label it criterion met if measured pEC50 is 5 or higher, and criterion not met otherwise?

Cc1cc(/C=C2\SC(=S)N(c3ccccc3)C2=O)c(C)n1-c1ccc(O)c(C(=O)O)c1	criterion not met
Cc1cc(/C=C2\SC(=S)N(Cc3ccccc3)C2=O)c(C)n1-c1ccc(O)c(C(=O)O)c1	criterion met

Q. Reported pEC50 reaches at least 5 for `COc1cccc(CN2C(=O)/C(=C/c3cc(C)n(-c4ccc(O)c(C(=O)O)c4)c3C)SC2=S)c1` ?
A. criterion not met

Q. Reported pEC50 reaches at least 5 for `Cc1cc(/C=C2\SC(=S)N(Cc3ccc(C(C)(C)C)cc3)C2=O)c(C)n1-c1ccc(O)c(C(=O)O)c1` ?
A. criterion met

Q. Reported pEC50 reaches at least 5 for `Cc1cc(/C=C2\SC(=S)N(Cc3ccccc3)C2=O)c(C)n1-c1ccc(Cl)c(C(=O)O)c1` ?
A. criterion not met

Q. Reported pEC50 reaches at least 5 for `COc1ccc(CN2C(=O)/C(=C/c3cc(C)n(-c4ccc(O)c(C(=O)O)c4)c3C)SC2=S)cc1` ?
A. criterion not met

---

Assign IC50 to each entry below.
test system: Human immunodeficiency virus 1; test: Antiviral activity against enfuvirtide-resistant HIV-1 NL4-3 harboring gp41 (36G)V38A mutation infected in human MT2 cells assessed as inhibition of p24 antigen production after 4 days by ELISA; format: functional, organism-based
Answers are plain numbers, in µM.

Examples with their reported IC50 follow.
Cc1cc(/C=C2\SC(=S)N(Cc3ccc(C(C)(C)C)cc3)C2=O)c(C)n1-c1ccc(O)c(C(=O)O)c1	4.25
COC(=O)c1cccc(CN2C(=O)/C(=C/c3cc(C)n(-c4ccc(O)c(C(=O)O)c4)c3C)SC2=S)c1	1.74

Q. Recorded IC50 for `COC(=O)c1ccc(CN2C(=O)/C(=C/c3cc(C)n(-c4ccc(O)c(C(=O)O)c4)c3C)SC2=S)cc1` , please?
A. 4.85

---

experiment: Selectivity index, ratio of CC50 for human MT2 cells to EC50 for HIV1 3B; assay type: toxicity, cell-based; details: read-out: Ratio CC50/EC50
Attribute measured: selectivity ratio
Give bare numbers.

Examples with their reported selectivity ratio follow.
COc1cccc(CN2C(=O)/C(=C/c3cc(C)n(-c4ccc(O)c(C(=O)O)c4)c3C)SC2=S)c1	4.4
Cc1cc(/C=C2\SC(=S)N(Cc3ccccc3)C2=O)c(C)n1-c1ccc(Cl)c(C(=O)O)c1	3.6
Cc1ccc(C)n1-c1ccc(O)c(C(=O)O)c1	191

Field: selectivity ratio. Fill in for each record below.
1. Cc1cc(/C=C2\SC(=S)N(Cc3ccccc3Br)C2=O)c(C)n1-c1ccc(O)c(C(=O)O)c1
2. COc1ccc(CN2C(=O)/C(=C/c3cc(C)n(-c4ccc(O)c(C(=O)O)c4)c3C)SC2=S)cc1

A.
0.6
3.8

Field: selectivity ratio. Fill in for each record below.
1. COC(=O)c1cccc(CN2C(=O)/C(=C/c3cc(C)n(-c4ccc(O)c(C(=O)O)c4)c3C)SC2=S)c1
2. Cc1cc(/C=C2\SC(=S)N(Cc3cccc(Br)c3)C2=O)c(C)n1-c1ccc(O)c(C(=O)O)c1
3. Cc1cc(/C=C2\SC(=S)N(Cc3ccc(C(F)(F)F)cc3)C2=O)c(C)n1-c1ccc(O)c(C(=O)O)c1

A.
[128, 1.5, 2.7]

Field: selectivity ratio. Fill in for each record below.
1. COC(=O)c1ccc(CN2C(=O)/C(=C/c3cc(C)n(-c4ccc(O)c(C(=O)O)c4)c3C)SC2=S)cc1
2. Cc1cc(/C=C2\SC(=S)N(Cc3ccc(C(=O)O)cc3)C2=O)c(C)n1-c1ccc(O)c(C(=O)O)c1
3. Cc1cc(/C=C2\SC(=S)N(Cc3ccccc3)C2=O)c(C)n1-c1cccc(C(=O)O)c1
4. Cc1cc(/C=C2\SC(=S)N(Cc3ccc(Br)cc3)C2=O)c(C)n1-c1ccc(O)c(C(=O)O)c1

A.
1: 24.6; 2: 14.7; 3: 5.5; 4: 2.2

Field: selectivity ratio. Fill in for each record below.
1. Cc1cc(/C=C2\SC(=S)N(Cc3ccccc3)C2=O)c(C)n1-c1ccc(O)c(C(=O)O)c1
2. Cc1cc(/C=C2\SC(=S)N(CCc3ccccc3)C2=O)c(C)n1-c1ccc(O)c(C(=O)O)c1
3. Cc1cc(/C=C2\SC(=S)N(Cc3ccccc3C(F)(F)F)C2=O)c(C)n1-c1ccc(O)c(C(=O)O)c1
4. Cc1cc(/C=C2\SC(=S)N(Cc3ccc(C(C)(C)C)cc3)C2=O)c(C)n1-c1ccc(O)c(C(=O)O)c1
5. Cc1cc(/C=C2\SC(=S)N(Cc3cccc(C(F)(F)F)c3)C2=O)c(C)n1-c1ccc(O)c(C(=O)O)c1

A.
50.2
4.2
1
61.3
6.7
